target: DRB1*07:01; conditions: modification not given
quantity: pIC50
Scale explanation: pIC50 corresponds to minus log10 of a concentration expressed in moles per litre.

Value of measured pIC50 for the entry TVEKGIYQTSNFRVQ [… (position 307)] : 6.50

src = patent US20220033460A1
